These measurements were taken from paper doi:10.1101/718155.

Biological target: S100A15
Assay: FP; direct
measured.metric: Kd (µM)
Give bare numbers, in µM.

{"columns": ["binder", "measured.metric", "value.reported"],
 "data": [
  ["RKLQRELEDATETADAMNREVSSLKNKLRRGDLPFVVPRRMARK [NMIIA (1894-1937) peptide]", "Kd", 17]
]}

Read the next record carefully.
Any idea what Kd was measured for RRLLFYKYVYKR [NCX1 (254-265) peptide] ?
28
